Tested on: MS2 coat protein
experiment-notes: apparent KD of MS2 coat protein; designed switch direction (-1 OFF switch, 1 ON switch): 1; higher = weaker reporter binding
condition-info: input ligand: microRNA oligo, concentration not stated
Kindly return yes if reported apparent KD of MS2 coat protein is no lower than 20 nM; return no if it is lower.

Worked examples follow.
residue-sequence	group-label
GAGUGGUUGGGAGGAUAUGCAUUGUUAUUAAAUGCAGAAGGUUUUAACAUGAGGAUCACCCAUGUAGGACUAUUCCUGUGUUUC [Parity 68 - Jieux - Same State NG 1] (Eterna round: R96, puzzle: Same State NG 1)	no
GAAUAGUUGAGAGGAUAUCUAUGAUAAAAGGAUAGAGAAGGUUUUAACAUGAGGAUCACCCAUGUAGGACUAUAUAUGUGAAUA [Parity 82 - Jieux - Same State NG 1] (Eterna round: R96, puzzle: Same State NG 1)	no
GCCGCGUUUCGCGCCUACAUGAGGAUCACCCAUGUUUGUUGGCAGGAUAUCGUCCGCUCUGCGGGCGAGAAGGGCUGUUGUGGU [salish99_SSNG3_R04_025] (Eterna round: R96, puzzle: Same State NG 3)	no
CCGAUUUAUGGAGGAUAUGGAGCCUUAUUGGCUCCAGAAGGCUAAUAACAUGAGGAUCACCCAUGUCGGCGGUCUAAUGACCGA [Eli NG1ss - 52] (Eterna round: R96, puzzle: Same State NG 1)	yes
UGUUAUUAGACAGGAUAUUGAAUGUUAAGUAUUAACAUGAGGAUCACCCAUGUAUUUCAUUCGUACAAGAAGGGUCAUGUUCCU [JR_SSNG2_Sub017] (Eterna round: R96, puzzle: Same State NG 2)	yes

Say whether CUGAGCGAUCUAGGAUAUCACGUCGAUUAGACGUGAGAAGGAGAUCAUAACAUGAGGAUCACCCAUGUAUUACAUGAAGCUCAG [SSNG1/6-A2] (Eterna round: R96, puzzle: Same State NG 1) shows apparent KD of MS2 coat protein of 20 nM or more.
no

Say whether GCUAGGAAAUAAGCCAACAUGAGGAUCACCCAUGUAUGUUGGUAGGAUAUCGUAUGCAAAGCAUACGAGAAGGGCUAACCUAGC [Mat - Same State NG 3 - JL Mod - D71] (Eterna round: R96, puzzle: Same State NG 3) shows apparent KD of MS2 coat protein of 20 nM or more.
yes

Say whether AAUCGUUUGAUAGGAUAUCGCUAUACAUGAGGAUCACCCAUGUUUACCACGCUGGUUUUUCAUACCGAGAAGGAUUCUGAUGAC [salish99_SSNG02_r04_002] (Eterna round: R96, puzzle: Same State NG 2) shows apparent KD of MS2 coat protein of 20 nM or more.
yes

Say whether GGAGCCGGUACUGAGGAUAUUCAUAUUAAAACAUGAGGAUCACCCAUGUAGGCCAGAAGGCCUUGGGAGAAGGCAGAUCGGCUCC [Biceusra] (Eterna round: R96, puzzle: Same State 2) shows apparent KD of MS2 coat protein of 20 nM or more.
yes

Say whether AGGCUCAGACGAGGAUAUAUGUCUCGAGCUUCGGCUCGAGACAUGAGGAUCACCCAUGUAAUAACAUAGAAGGCGUCUGAGCCA [SSNG2/1-A1] (Eterna round: R96, puzzle: Same State NG 2) shows apparent KD of MS2 coat protein of 20 nM or more.
yes

Say whether CUGAGCAAUCGAGGAUAUCACGUCGUUUAGACGUGAGAAGGCGAUCAUAACAUGAGGAUCACCCAUGUAUUACAUGAAGCUCAG [SSNG1/4-A3] (Eterna round: R96, puzzle: Same State NG 1) shows apparent KD of MS2 coat protein of 20 nM or more.
no

Say whether UGUUGUAUUACAGGAUAUCUAGUAUUUUUAUCUAGAGAAGGGUAUUCACAUGAGGAUCACCCAUGUAUAUACGAGGAAGUUGUG [JMF's solution 53] (Eterna round: R96, puzzle: Same State NG 1) shows apparent KD of MS2 coat protein of 20 nM or more.
yes

Say whether UUGGUUCUCGUAGGAUAUGUAGGAUAUGCCUACAUGAGGAUCACCCAUGUUCGCAUGGCAGAAGGACAGAAGGACGAUCACCAU [pwkr ssNG2 2FMN + 1F5.17] (Eterna round: R96, puzzle: Same State NG 2) shows apparent KD of MS2 coat protein of 20 nM or more.
yes

Say whether GGUAGGUUACUACCAAACAUGAGGAUCACCCAUGUAAGUGGGAAGGAUAUGGUACCUUUUAGGUACCAGAAGGUCCAUAUAGUA [JL Fiskers NG3ss - 2 mod 10] (Eterna round: R96, puzzle: Same State NG 3) shows apparent KD of MS2 coat protein of 20 nM or more.
yes

* * *

Tested on: MS2 coat protein
experiment-notes: apparent KD of MS2 coat protein; higher = weaker reporter binding
condition-info: Eterna round: R107; input ligand: tryptophan 2.4 mM
This section presents sequences with their documented apparent KD of MS2 coat protein values.
The reply should contain only the number, in µM.

Answered cases to consult:
residue-sequence	unit	apparent KD of MS2 coat protein
ACAAGUCCUCAUGAUACCAGCGAUGAGACAUAGUCUCAACAUGAGGAUCACCCAUGUAUUCGCCCUUGGCAGCAUACGGUUUUUG [Arleer]	µM	0.517
GCACCAGGUACGGAUACCAGAAUUUGCCAAUUGGGUGAACAUGAGGAUCACCCAUGUUAUUUCCCUUGGCAGCCGUACCUGGUGC [ETB NP+V+V2 #10]	µM	0.00945
AGCUCGCAUCCUCUAGCGUCAAAGACGCCUCGAGGACCGGUACGGCCGCCACUCGAUAUGAGGAUCACCCAUAUCAAAGCGAGCA [TrypAX 2 #SwitchBubble #AlternativeMS2 #MS2Late #CuTurnoff]	µM	0.581

Give the reported apparent KD of MS2 coat protein for this sequence. UGGAUAAGGGUAAAUAGGAUAAGUACAGAAGGAGCGCGAAUAAACGCAGGUAGGUCGCUGGACAUGAGGAUCACCCAUGUAAAUG [Same State Arginine A GF 22]
0.05

Give the reported apparent KD of MS2 coat protein for this sequence. UUCCACCUAAAGCGUUGCCCUCGUGAUGAUACCAGUUUCAGCGGUAACCCUUGGCAGCAUCGGACAUGAGGAUCACCCAUGUGGA [theeternabot_exclusion_MS2_Theo_A_47]
0.107

Give the reported apparent KD of MS2 coat protein for this sequence. GGGUAAGAUCCGGAUACCAGCGAACAUGAGGAUCACCCAUGUGAAAUAAGAUAGACUAAACGCCCUUGGCAGCCGAAAUAGCGUU [Same State Theophylline B GF 4]
0.0441

* * *

Tested on: MS2 coat protein
experiment-notes: apparent KD of MS2 coat protein, switch ON state; designed switch direction (-1 OFF switch, 1 ON switch): -1; higher = weaker reporter binding
condition-info: FMN input: 0 or 200 uM; Eterna round: R93 (includes R88 designs)
Kindly return YES if reported apparent KD of MS2 coat protein is no lower than 0.03 µM; return NO if it is lower.

In [3]: df
Out[3]:
                           residue_sequence  group_label
0  AAGGGACAUGAGGAUCACCCAUGUCAGGAUAUGCUAUGGAAAAUAAAAAUAAAACAUAGCAGAAGGGAUAAAAA [Denovo 3]           NO
1  AAUUAGUGAGGAUAUACAUGAGGAUCACCCAUGUGUAAAAAAAAACGCAAAAAAGAAUGUAGAAGGCACUAAAA [Ex 3 Cold]           NO
2  AGUAUGCGAGGAUAUACAUGAGGAUCACCCAUGUGAGAGAUAAAAGUGAGAAAGACAAGUAGAAGGCGCGUACA [JL Lego Mod 23]          YES
3  AAGUUGCUAGGAUAUACUUGGGCAACAAAUAAACUAAUAUAACAUGAGGAUCACCCAUGUAGAAGGAGCAGAAA [JR_Exc002_Sub206]          YES
4  AAGAAGUCAGGAUAUGCCAAAGGUCACGAAAGUGACAAAGGGCAGAAGGGACAUGAGGAUCACCCAUGUAAAGA [Opal 2]          YES
5  AAUAACAGAGGAUAUGCAAAAAUAAGCGGAAACGCAAGAAAACAUGAGGAUCACCCAUGUAGAAGGCUGGAUAA [Tetraloop hairpin BlockHead Variations]           NO
6  AAGAAGUGAGGAUAUACAUGAGGAUCACCCAUGUAAAGAAGAAGAGGAGAGAAUAAAGGUAGAAGGCACAAGAA [JR_Exclusion3_Sub4]          YES
7  GGCACUGUAGGAUAUACAUGAACAAUUGGCAUCCUCAGUCCACAUGAGGAUCACCCAUGUAGAAGGAUAGAAAA [Besorees]          YES
8  AAAAAGGCAGGAUAUACGAAACUAAGACAAAUAAGAAAGGGACAUGAGGAUCACCCAUGUAGAAGGGCCAAAAA [Exclusion 2-01... 60% 4]          YES
9  AACAUGUAAGGAUAUGAAAGAAAAGAAAAGAAAGAAAAGAAUCAGAAGGUACAUGAGGAUCACCCAUGUAAGAA [EteRNA is fun!]          YES

Say whether AACUGACAUGAGGAUCACCCAUGUCAGGAUAUGACUUGAUAGAAAAUAAAAUAUCAUGUCAGAAGGGACAUGAA [Design 61: Sub-opt KB] shows apparent KD of MS2 coat protein of 0.03 µM or more.
NO

Say whether GGUUGACGAGGAUAUACAUGAGGAUCACCCAUGUGAGAGAAAAAAGUGAGAAAGAAAAGUAGAAGGCGUUGACG [salish99-ex3-59] shows apparent KD of MS2 coat protein of 0.03 µM or more.
YES

Say whether AAAAAGUGAGGAUAUGGUAAAAAAAAAAAAAAAAAAAAAAUCCAGAAGGCACAUGAGGAUCACCCAUGUAAAAA [Jolly Cotton - Jieux - Exclusion 4] shows apparent KD of MS2 coat protein of 0.03 µM or more.
YES

Say whether AAAAAACAUGAGGAUCACCCAUGUGAGGAUAUCGUAAACAAAAAAAACAAAAACAAAUCGAGAAGGCACAAAAA [Amethyst 34] shows apparent KD of MS2 coat protein of 0.03 µM or more.
NO

Say whether AAAGGACGAGGAUAUACAUGAGGAUCACCCAUGUAAAAAACAUAAUAAAAGAAUAUAUGUAGAAGGCGUCCAAA [Ruby 59] shows apparent KD of MS2 coat protein of 0.03 µM or more.
NO

Say whether AACCAACAUGAGGAUCACCCAUGUCAGGAUAUGCAAAUAACAAACAACAAACAACAAAGCAGAAGGGACAACAA [Mat - Exclusion 1 - Eli mod - D50] shows apparent KD of MS2 coat protein of 0.03 µM or more.
NO

Say whether AGCAAACAUGAGGAUCACCCAUGUCAGGAUAUGAACGAAAAUAAAUAAAAAUAAAAGUUCAGAAGGGACGAGCA [66%, Wbt, 25] shows apparent KD of MS2 coat protein of 0.03 µM or more.
YES

Say whether AAGAAGUGAGGAUAUGUCUGUGCGAAAAAAAAAAAGUGCAGACAGAAGGCACAUGAGGAUCACCCAUGUGGAAA [Florian 65% 5] shows apparent KD of MS2 coat protein of 0.03 µM or more.
NO

Say whether AUAGUAGGAGGAUAUACAUAGAUACAGAUACAUGUAGACGUACAUGAGGAUCACCCAUGUAGAAGGCCUAUGAA [Mat - Same state - Mayanna Mod - D149] shows apparent KD of MS2 coat protein of 0.03 µM or more.
YES

Measured values drawn from the supplement of paper PMC9170038 for this set.
